Recorded MIC for the following compounds
Tested on: A. baumannii (Ab)
Experiment: Broth microdilution minimum inhibitory concentration (MIC)
Type: cell-based
Settings: Acinetobacter baumannii; A. baumannii; growth medium with sodium bicarbonate; read-out: Ab + bicarb MIC

Solved entries:
CCN(Cc1ccc(-n2ccc(NC(=O)N3CCN(C(=O)[C@H](C)N)CC3)nc2=O)cc1)C1CCC(N)CC1 (some centres unmarked) ... > 32 mg/L
CC[C@@H]1CN(Cc2ccc(-n3ccc(NC(=O)N4CCN(C(=O)C(C)(C)N)CC4)nc3=O)cc2)CC[C@H]1N (stereo in doubt) ... > 32 mg/L
CCN(Cc1ccc(-n2ccc(NC(=O)N3CCN(C(=O)[C@@H](C)NC(=O)[C@@H](C)N)CC3)nc2=O)cc1)C1CCC(N)CC1 (some centres unmarked) ... > 32 mg/L
CC(C)(N)C(=O)N1CCN(C(=O)Nc2ccn(-c3ccc(CNCC4(O)CNC4)cc3)c(=O)n2)CC1 ... > 32 mg/L
CC(CN1CC(N)C1)Oc1ccc(-n2ccc(NC(=O)N3CCN(C(=O)C(C)(C)N)CC3)nc2=O)cc1 (centres unmarked) ... > 32 mg/L

Prompt: Dear colleague, I am looking for the recorded MIC of the following compound: CN(Cc1ccc(-n2ccc(NC(=O)N3CCN(C(=O)C(C)(C)N)CC3)nc2=O)cc1Cl)C1CCC(N)CC1 (centres unmarked)
Completion: < 8 mg/L

Prompt: Next up: CC(C)(N)C(=O)N1CCN(C(=O)Nc2ccn(-c3ccc(CCN[C@@H]4CC[C@H](N)C4)cc3)c(=O)n2)CC1
Completion: > 32 mg/L

Prompt: Again, but for CCN(C(C)Cc1ccc(-n2ccc(NC(=O)N3CCN(C(=O)C(C)(C)N)CC3)nc2=O)cc1)C1CCC(N)CC1 (centres unmarked)
Completion: > 32 mg/L

Prompt: And then CC(C)(N)C(=O)N1CCN(C(=O)Nc2ccn(-c3ccc(CN4CC[C@@H](N)[C@@H](F)C4)cc3)c(=O)n2)CC1 , what is it?
Completion: > 32 mg/L
